Source of measurements: the RNAGym collection of RNA variant scans (doi:10.7554/elife.90254)

// reported self-cleavage per item
B1: OR4K15 (parent)
chain: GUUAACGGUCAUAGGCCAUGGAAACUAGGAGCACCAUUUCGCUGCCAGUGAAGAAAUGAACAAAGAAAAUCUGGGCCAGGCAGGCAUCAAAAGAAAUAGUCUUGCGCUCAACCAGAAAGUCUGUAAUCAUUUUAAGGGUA

variants of: B1; assay: self-cleavage, relative activity (ratio to wild type); higher = more cleavage; in vitro, sequencing; the parent is a self-cleaving ribozyme

VARIANT_SPEC: G74A A94U
RESULT: 0.19
--
VARIANT_SPEC: A66G A86C
RESULT: 1.45
--
VARIANT_SPEC: A89G U139A
RESULT: 1.67
--
VARIANT_SPEC: A33U U72C
RESULT: 0.3
--
VARIANT_SPEC: A60U A94G
RESULT: 1.5
--
VARIANT_SPEC: U2A A134G
RESULT: 1.65
--
VARIANT_SPEC: U97C U127C
RESULT: 1.25
--
VARIANT_SPEC: A22G A82U
RESULT: 0.36

// returns reported self-cleavage for input A36G A89U 2.21

# self-cleavage lookup, item G48A A110G 0.12

// self-cleavage lookup, key: A62G U122C 1.27
